A collection of compounds and their measured LC50 MW
- Tested on: Maize weevil [Sitophilus Zeamais (Motschulsky)]
- test_summary: Maize weevil test (MW)
- Assay type: in vivo
- experimental_setup: adult weevils, treated corn seeds, 48 hours, percent in solution
readout_name: LC50 MW

[[record]]
smiles = "COc1ccc(N=C(OCc2ccc(F)c(Oc3ccc(F)cc3)c2)C(C)C)cc1Cl"
readout_name = "LC50 MW"
val = "> 0.01%"

[[record]]
smiles = "CC(C)C(=Nc1ccc(F)cc1)OCc1cccc(Oc2ccc(Br)cc2)c1"
readout_name = "LC50 MW"
val = "> 0.01%"

[[record]]
smiles = "COCc1c(F)c(F)c(COC(=Nc2ccc(F)c(Cl)c2)C(C)C)c(F)c1F"
readout_name = "LC50 MW"
val = "> 0.01%"

[[record]]
smiles = "C=C(C)C(=Nc1ccc(F)c(Cl)c1)OCc1ccc(F)c(Oc2ccccc2)c1"
readout_name = "LC50 MW"
val = "> 0.01%"

[[record]]
smiles = "COCc1c(F)c(F)c(COC(=Nc2ccc(F)c(Cl)c2F)C(C)C)c(F)c1F"
readout_name = "LC50 MW"
val = "> 0.01%"

[[record]]
smiles = "CC(C)C(=Nc1cccc(F)c1)OCc1ccc(F)c(Oc2ccc(F)cc2)c1"
readout_name = "LC50 MW"
val = "> 0.01%"

[[record]]
smiles = "CC(C)C(=Nc1cccc(Br)c1)OCc1ccc(F)c(Oc2ccc(Cl)cc2)c1"
readout_name = "LC50 MW"
val = "> 0.01%"

[[record]]
smiles = "CC(C)C(=Nc1ccc2c(c1)OCO2)OCc1ccc(F)c(Oc2ccccc2)c1"
readout_name = "LC50 MW"
val = "0.005%"


###

LC50 MW values, listed per item
- Tested on: Maize weevil [Sitophilus Zeamais (Motschulsky)]
- test_summary: Maize weevil test (MW)
- Assay type: in vivo
- experimental_setup: adult weevils, treated corn seeds, 48 hours, percent in solution
readout_name: LC50 MW

[[record]]
smiles = "CC(C)C(=Nc1ccc(OC(F)(F)F)cc1)OCc1cccc(Oc2ccccc2)n1"
val = "> 0.01%"

[[record]]
smiles = "CC(C)C(=Nc1cccc(OC(F)(F)F)c1)OCc1ccc(F)c(Oc2ccccc2)c1"
val = "> 0.01%"

[[record]]
smiles = "CC(C)C(=Nc1ccc(OCC(F)(F)F)cc1)OCc1cccc(Oc2ccccc2)c1"
val = "> 0.01%"

[[record]]
smiles = "CC(C)C(=Nc1ccc(Cl)cc1)OCc1cccc(Oc2ccc(Cl)cc2)n1"
val = "> 0.01%"

[[record]]
smiles = "CC(C)C(=Nc1ccc(C#N)cc1)OCc1cccc(Oc2ccc(Cl)cc2)c1"
val = "> 0.01%"

[[record]]
smiles = "CC(C)C(=Nc1ccc(Br)cc1)OCc1cccc(Oc2ccc(F)cc2)c1"
val = "0.009%"

[[record]]
smiles = "CC(C)C(=Nc1cccc(I)c1)OCc1cccc(Oc2ccc(F)cc2)c1"
val = "> 0.01%"

[[record]]
smiles = "CCOc1ccc(N=C(OCc2cccc(Oc3ccc(F)cc3)c2)C(C)C)cc1Br"
val = "> 0.01%"


###

- Test system: Black Bean Aphid [Aphis fabae (Scop.)]
- test_summary: Black bean aphid test (BBA)
- Type: in vivo
- experimental_setup: percent of test compound in sprayed solution, 48 hours
As shown below, each of these molecules has a reported LC50 BBA value.
readout_name: LC50 BBA

[[record]]
molecule = "CC(C)C(=Nc1ccc(F)c(F)c1F)OCc1ccc(F)c(Oc2ccc(F)cc2)c1 [Compound 349]"
val = "> 0.05%"

[[record]]
molecule = "CC(C)C(=Nc1ccc(C(F)(F)F)cc1)OCc1cccc(Cc2ccccc2)c1 [Compound 535]"
val = "> 0.05%"

[[record]]
molecule = "CC(C)C(=Nc1ccc(F)c(Cl)c1)OCc1cccc(Cc2ccccc2)c1 [Compound 537]"
val = "> 0.05%"

[[record]]
molecule = "CC(C)C(=Nc1ccc(F)c(Cl)c1)OCc1ccc(F)c(Oc2ccccc2)c1 [Compound 82]"
val = "0.00021%"

[[record]]
molecule = "C=CCOc1cccc(COC(=Nc2cccc(C(F)(F)F)c2)C(C)C)c1 [Compound 480]"
val = "> 0.05%"

[[record]]
molecule = "C=CCOc1cccc(COC(=Nc2ccc(F)c(Cl)c2)C(C)C)c1 [Compound 479]"
val = "> 0.05%"


###

# LC50 MW values compiled below
- Tested on: Maize weevil [Sitophilus Zeamais (Motschulsky)]
- test_summary: Maize weevil test (MW)
- Assay type: in vivo
- experimental_setup: adult weevils, treated corn seeds, 48 hours, percent in solution
readout_name: LC50 MW (%)

[[record]]
compound = "CC(C)C(=Nc1ccc(C(F)(F)F)cc1)OCc1cccc(Oc2ccc(Cl)cc2)n1 [Compound 530]"
readout_name = "LC50 MW"
readout_qualifier = ">"
val = 0.01

[[record]]
compound = "CC(C)C(=Nc1ccc(F)c(Cl)c1)OCc1ccc(F)c(Oc2ccc(Cl)cc2)c1 [Compound 267]"
readout_name = "LC50 MW"
readout_qualifier = "="
val = 0.0027

[[record]]
compound = "CC(C)C(=Nc1ccc(F)c(Cl)c1)OCc1cccc(Oc2ccc(F)cc2F)c1 [Compound 191]"
readout_name = "LC50 MW"
readout_qualifier = "="
val = 0.004

[[record]]
compound = "CC(C)C(=Nc1ccc(F)c(Cl)c1F)OCc1ccc(F)c(Oc2ccc(Cl)cc2)c1 [Compound 395]"
readout_name = "LC50 MW"
readout_qualifier = "="
val = 0.004


###

Attribute: LC50 MW
- Test system: Maize weevil [Sitophilus Zeamais (Motschulsky)]
- test_summary: Maize weevil test (MW)
- Format: in vivo
- experimental_setup: adult weevils, treated corn seeds, 48 hours, percent in solution
readout_name: LC50 MW

[[record]]
compound = "C=C(C)C(=Nc1ccc(C(F)(F)F)cc1)OCc1ccc(F)c(Oc2ccccc2)c1"
test_system = "Maize weevil [Sitophilus Zeamais (Motschulsky)]"
val = "0.0037%"

[[record]]
compound = "Cc1ccc(N=C(OCc2cccc(Oc3ccc(Cl)cc3)c2)C(C)C)cc1Cl"
test_system = "Maize weevil [Sitophilus Zeamais (Motschulsky)]"
val = "> 0.01%"

[[record]]
compound = "CC(C)C(=Nc1ccc(OC(F)(F)C(F)Cl)cc1)OCc1cccc(Oc2ccccc2)c1 (centres unmarked)"
test_system = "Maize weevil [Sitophilus Zeamais (Motschulsky)]"
val = "> 0.01%"

[[record]]
compound = "CC(C)C(=Nc1cccc(C(C)(C)C)c1)OCc1cccc(Oc2ccc(F)cc2)c1"
test_system = "Maize weevil [Sitophilus Zeamais (Motschulsky)]"
val = "> 0.01%"

[[record]]
compound = "CC(C)C(=Nc1ccc2c(c1)OC(F)(F)O2)OCc1cccc(Oc2ccc(F)cc2)c1"
test_system = "Maize weevil [Sitophilus Zeamais (Motschulsky)]"
val = "0.0025%"

[[record]]
compound = "CC(C)C(=Nc1cc(F)cc(C(F)(F)F)c1)OCc1cccc(Oc2ccccc2)c1"
test_system = "Maize weevil [Sitophilus Zeamais (Motschulsky)]"
val = "> 0.01%"

[[record]]
compound = "CC(C)C(=Nc1ccc2c(c1)OCO2)OCc1cccc(Oc2ccc(Cl)cc2)n1"
test_system = "Maize weevil [Sitophilus Zeamais (Motschulsky)]"
val = "0.01%"

[[record]]
compound = "CC(C)C(=Nc1ccc(F)c(Cl)c1F)OCc1cccc(Oc2ccc(F)cc2)n1"
test_system = "Maize weevil [Sitophilus Zeamais (Motschulsky)]"
val = "0.01%"

[[record]]
compound = "CC(C)C(=Nc1ccc(Cl)cc1)OCc1cccc(Oc2ccc(Cl)cc2)c1"
test_system = "Maize weevil [Sitophilus Zeamais (Motschulsky)]"
val = "> 0.01%"

[[record]]
compound = "CC(C)C(=Nc1ccc(F)c(Cl)c1)OCc1cc(Oc2ccc(Cl)cc2)ccn1"
test_system = "Maize weevil [Sitophilus Zeamais (Motschulsky)]"
val = "> 0.01%"

[[record]]
compound = "CC(C)C(=Nc1ccc2c(c1)OCO2)OCc1cccc(Oc2ccccc2)c1"
test_system = "Maize weevil [Sitophilus Zeamais (Motschulsky)]"
val = "0.008%"

[[record]]
compound = "CC(C)C(=Nc1ccc(C(F)(F)F)cc1[N+](=O)[O-])OCc1ccc(F)c(Oc2ccccc2)c1"
test_system = "Maize weevil [Sitophilus Zeamais (Motschulsky)]"
val = "> 0.01%"

[[record]]
compound = "CC(C)C(=Nc1cccc(Cl)c1)OCc1cccc(Oc2ccc(Cl)cc2)c1"
test_system = "Maize weevil [Sitophilus Zeamais (Motschulsky)]"
val = "> 0.01%"

[[record]]
compound = "Cc1ccc(N=C(OCc2ccc(F)c(Oc3ccc(F)cc3)c2)C(C)C)cc1F"
test_system = "Maize weevil [Sitophilus Zeamais (Motschulsky)]"
val = "> 0.01%"

[[record]]
compound = "C#CC(OC(=Nc1cccc(C(F)(F)F)c1)C(C)C)c1cccc(Oc2ccccc2)c1 (centres unmarked)"
test_system = "Maize weevil [Sitophilus Zeamais (Motschulsky)]"
val = "> 0.01%"

[[record]]
compound = "CC(C)C(=Nc1ccc(F)c(Cl)c1)OCc1cccc(Oc2ccc(Br)cc2)n1"
test_system = "Maize weevil [Sitophilus Zeamais (Motschulsky)]"
val = "> 0.01%"

[[record]]
compound = "CC(C)C(=Nc1ccc(Cl)c(Cl)c1)OCc1ccc(F)c(Oc2ccccc2)c1"
test_system = "Maize weevil [Sitophilus Zeamais (Motschulsky)]"
val = "0.0061%"

